Cited source for all entries: paper PMC4336329

Target: human ether-à-go-go-related gene (hERG) potassium channel (human, UniProt Q12809)
Sequence (Q12809 whole entry, looked up): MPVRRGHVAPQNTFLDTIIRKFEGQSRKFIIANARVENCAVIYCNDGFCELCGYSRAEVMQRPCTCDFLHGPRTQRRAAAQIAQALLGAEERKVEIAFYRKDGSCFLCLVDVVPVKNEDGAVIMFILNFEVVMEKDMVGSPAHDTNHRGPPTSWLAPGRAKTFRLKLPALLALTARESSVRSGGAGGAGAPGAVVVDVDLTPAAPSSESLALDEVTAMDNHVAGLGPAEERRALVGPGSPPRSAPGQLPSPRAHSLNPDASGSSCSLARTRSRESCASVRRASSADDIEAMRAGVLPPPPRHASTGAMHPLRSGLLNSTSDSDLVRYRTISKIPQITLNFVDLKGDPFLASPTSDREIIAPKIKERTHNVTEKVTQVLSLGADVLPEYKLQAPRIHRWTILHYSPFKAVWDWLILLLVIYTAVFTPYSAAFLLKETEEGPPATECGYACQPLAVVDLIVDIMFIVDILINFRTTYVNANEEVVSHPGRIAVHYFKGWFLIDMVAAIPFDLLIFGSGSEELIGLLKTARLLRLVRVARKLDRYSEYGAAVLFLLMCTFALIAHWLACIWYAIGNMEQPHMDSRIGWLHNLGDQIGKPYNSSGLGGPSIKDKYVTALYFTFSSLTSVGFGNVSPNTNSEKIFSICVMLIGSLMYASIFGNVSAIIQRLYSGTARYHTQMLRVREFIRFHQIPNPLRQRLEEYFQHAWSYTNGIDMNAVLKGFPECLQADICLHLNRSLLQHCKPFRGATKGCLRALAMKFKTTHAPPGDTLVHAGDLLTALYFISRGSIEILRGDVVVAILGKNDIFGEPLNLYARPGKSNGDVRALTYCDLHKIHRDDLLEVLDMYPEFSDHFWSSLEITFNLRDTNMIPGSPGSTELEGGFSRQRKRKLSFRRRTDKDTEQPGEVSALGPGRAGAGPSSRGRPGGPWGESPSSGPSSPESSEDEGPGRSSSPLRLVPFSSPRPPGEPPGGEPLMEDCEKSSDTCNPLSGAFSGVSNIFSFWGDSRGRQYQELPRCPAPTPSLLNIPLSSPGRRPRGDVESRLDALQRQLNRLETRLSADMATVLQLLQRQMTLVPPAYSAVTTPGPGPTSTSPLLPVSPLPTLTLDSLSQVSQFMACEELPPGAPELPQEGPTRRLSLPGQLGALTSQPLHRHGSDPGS
Experiment: primary screen, population patch clamp on CHO cells stably expressing hERG; higher = less effect of the substance
Screen size: about 310,000 compounds; about 2,200 (0.71%) showed an effect of 50% or more. The effect is printed as a negative number. The entries come from a sample that favours strong results as a whole.
property.measured: hERG current change (%, negative = inhibition) at 1uM (%)

- query.smiles: "O=C(CSc1nnc(CNC(=O)c2ccccc2)o1)NCc1ccc2c(c1)OCO2"
  test.target: "human ether-à-go-go-related gene (hERG) potassium channel (human, UniProt Q12809)"
  observed.result: 4.4
- query.smiles: "CCOc1ccc(C(=O)CCC(=O)N(CC)CC(=O)NCc2ccc(Cl)cc2)cc1"
  test.target: "human ether-à-go-go-related gene (hERG) potassium channel (human, UniProt Q12809)"
  observed.result: -8.36
- query.smiles: "CCN(CC(=O)NCc1ccc(Cl)cc1)C(=O)CCC(=O)c1ccc(F)cc1"
  test.target: "human ether-à-go-go-related gene (hERG) potassium channel (human, UniProt Q12809)"
  observed.result: -52.2
- query.smiles: "CCN(CC(=O)NCc1ccc(Cl)cc1)C(=O)Cc1ccc(OC)cc1"
  test.target: "human ether-à-go-go-related gene (hERG) potassium channel (human, UniProt Q12809)"
  observed.result: -66.9
- query.smiles: "CCN1CCc2c(sc(NC(=O)c3ccc(C(=O)c4ccccc4)cc3)c2C(N)=O)C1.Cl"
  test.target: "human ether-à-go-go-related gene (hERG) potassium channel (human, UniProt Q12809)"
  observed.result: -7.72
- query.smiles: "COc1ccc(OCc2nnc(SCc3ccc(C(=O)O)cc3)o2)cc1"
  test.target: "human ether-à-go-go-related gene (hERG) potassium channel (human, UniProt Q12809)"
  observed.result: 16.6
- query.smiles: "CCN(CC(=O)NCc1ccc(Cl)cc1)C(=O)CCC(=O)c1ccc(C)cc1"
  test.target: "human ether-à-go-go-related gene (hERG) potassium channel (human, UniProt Q12809)"
  observed.result: -8.96
- query.smiles: "CNNC(=S)NCCC1=CCCCC1"
  test.target: "human ether-à-go-go-related gene (hERG) potassium channel (human, UniProt Q12809)"
  observed.result: 10.2
- query.smiles: "CCN(CC(=O)NCc1ccc(F)cc1)C(=O)CN1CCN(c2ccc(OC)cc2)CC1.O=C(O)C(=O)O"
  test.target: "human ether-à-go-go-related gene (hERG) potassium channel (human, UniProt Q12809)"
  observed.result: -21.1
- query.smiles: "CCN(CC(=O)NCc1ccc(Cl)cc1)C(=O)/C=C/c1ccccc1"
  test.target: "human ether-à-go-go-related gene (hERG) potassium channel (human, UniProt Q12809)"
  observed.result: -1.79

====

Molecular target: human ether-à-go-go-related gene (hERG) potassium channel (human, UniProt Q12809)
Experiment: primary screen, population patch clamp on CHO cells stably expressing hERG; higher = less effect of the substance
In all, about 310,000 compounds went through this assay and about 2,200 (0.71%) showed an effect of 50% or more. Effects have a minus sign here. This excerpt belongs to a sample that is enriched for strong results.
property.measured: hERG current change (%, negative = inhibition) at 1uM (%)

- compound: "O=C(CCCC(=O)NCC1CCCO1)NCC1CCCO1 (centres unmarked)"
  observed.result: 3.68
- compound: "O=C1CC(N2CCN(C/C=C/c3ccccc3)CC2)C(=O)N1CCc1ccccc1 (centres unmarked)"
  observed.result: -4.01
- compound: "CCCCN(CC)CCCNC(=O)c1ccc(CS(=O)(=O)c2c(Cl)cccc2Cl)o1"
  observed.result: -8.53
- compound: "CCCN(CCC)CCCNC(=O)c1ccc(CS(=O)(=O)c2c(Cl)cccc2Cl)o1"
  observed.result: -59.1
- compound: "Cc1nc2c(C(=O)N3CCCC3)cnn2c(C)c1Cc1c(F)cccc1Cl"
  observed.result: -11.4
